src = patent US20090124607A1

biological target: recombinant human GR (Homo sapiens); construct: purchased Panvera/Invitrogen P2812 (kit P2893); assay: Human Glucocorticoid Receptor (GR) Assay, fluorescence polarization (GRhuFL_FP_v2, GR-binders); assay type: binding
Sequence (P04150 whole entry): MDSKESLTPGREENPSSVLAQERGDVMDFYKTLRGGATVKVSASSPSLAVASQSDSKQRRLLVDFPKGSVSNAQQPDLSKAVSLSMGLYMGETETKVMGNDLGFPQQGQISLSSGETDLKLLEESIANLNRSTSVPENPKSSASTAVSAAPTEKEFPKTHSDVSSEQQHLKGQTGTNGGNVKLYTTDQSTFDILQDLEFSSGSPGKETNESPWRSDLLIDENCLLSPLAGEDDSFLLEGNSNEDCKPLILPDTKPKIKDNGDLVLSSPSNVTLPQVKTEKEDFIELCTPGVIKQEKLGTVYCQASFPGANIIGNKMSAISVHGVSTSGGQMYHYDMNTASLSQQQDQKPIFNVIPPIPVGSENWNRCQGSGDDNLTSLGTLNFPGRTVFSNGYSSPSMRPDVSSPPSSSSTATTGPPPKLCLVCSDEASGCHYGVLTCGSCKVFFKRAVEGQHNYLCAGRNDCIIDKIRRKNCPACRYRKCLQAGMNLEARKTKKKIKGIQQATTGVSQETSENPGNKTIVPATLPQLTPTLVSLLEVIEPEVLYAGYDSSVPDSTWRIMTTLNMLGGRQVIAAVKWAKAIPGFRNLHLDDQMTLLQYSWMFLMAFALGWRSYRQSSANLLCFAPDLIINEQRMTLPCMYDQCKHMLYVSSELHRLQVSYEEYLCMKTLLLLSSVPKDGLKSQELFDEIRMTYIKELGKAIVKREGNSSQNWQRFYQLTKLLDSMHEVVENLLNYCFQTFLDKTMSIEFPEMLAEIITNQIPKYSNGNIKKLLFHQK
Reported endpoint: IC50 (nM)

Worked set:
Cc1cc(C)c(S(=O)(=O)N[C@@H](C)CNc2cccc3c2cnn3-c2ccc(F)c(C)c2)c(C)c1: 4
Cc1cc(C)c(S(=O)(=O)N[C@@H](C)CCc2cccc3c2cnn3-c2cncnc2)c(C)c1: 17
Cc1cc(C)c(S(=O)(=O)N[C@@H](C)CNc2cccc3c2cnn3-c2cccc(F)c2)c(C)c1: 4
Cc1cc(C)c(S(=O)(=O)NC(COc2cccc3c2cnn3-c2ccc(F)cc2)C(F)(F)F)c(C)c1 (stereo not drawn): 4
CCC(CC)n1nc(C)c(S(=O)(=O)N[C@@H](C)COc2cccc3c2cnn3-c2ccc(F)cc2)c1C: 18

(A) COc1cccc(-n2ncc3c(NC[C@H](C)NS(=O)(=O)c4c(C)cc(C)cc4C)cccc32)c1
(B) Cc1cc(C)c(S(=O)(=O)N[C@@H](C)CNc2cccc3c2cnn3-c2cccc(C(=O)O)c2)c(C)c1
Compare A and B by numeric IC50 and name the larger one. Write down the label attached to your selection.
B
